# TESTED ON: T1, C-terminal human Regnase-1 (amino acids 301 to 599) with N-terminal FLAG tag and C-terminal BirA recognition … (human, UniProt Q5D1E8 301-599)
# T1 sequence: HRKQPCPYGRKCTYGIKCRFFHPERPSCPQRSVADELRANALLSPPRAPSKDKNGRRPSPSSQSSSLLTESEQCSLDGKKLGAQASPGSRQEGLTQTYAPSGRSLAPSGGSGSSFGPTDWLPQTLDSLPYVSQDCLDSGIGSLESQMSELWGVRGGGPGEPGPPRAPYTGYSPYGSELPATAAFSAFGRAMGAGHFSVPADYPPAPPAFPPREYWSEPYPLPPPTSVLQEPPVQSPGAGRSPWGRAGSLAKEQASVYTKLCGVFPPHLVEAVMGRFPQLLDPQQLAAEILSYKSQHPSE
# EXPERIMENTAL DETAILS: cell-based or functional assay
OBSERVABLE: 50% inhibition concentration, Regnase-1 phosphorylation by IKKβ (AlphaScreen) (µM)

- BINDER: "XWIWDFWNED (HELM PEPTIDE1{[meA].W.I.W.D.F.W.N.E.D.[C1CCN([*:1])C1]}$PEPTIDE1,PEPTIDE1,1:R1-10:R3$$$V2.0; SMILES CC[C@H](C)[C@@H]1NC(=O)[C@H](Cc2c[nH]c3ccccc23)NC(=O)[C@H](C)N(C)C(=O)C[C@@H](C(=O)N2CCCC2)NC(=O)[C@H](CCC(=O)O)NC(=O)[C@H](CC(N)=O)NC(=O)[C@H](Cc2c[nH]c3ccccc23)NC(=O)[C@H](Cc2ccccc2)NC(=O)[C@H](CC(=O)O)NC(=O)[C@H](Cc2c[nH]c3ccccc23)NC1=O) [PP24]"
  UNITS SYMBOL: "µM"
  MEAS VALUE: 7.2

Attribution: patent US20250018014A1
